tested on: C. krusei biofilms; test: Mono species Candida biofilm MIC, XTT assay; assay type: cell-based; conditions: 48 h C. krusei biofilms
# Minimum inhibitory concentration of 48 h Candida biofilms listing for each entry below
API: value field is a number in µg/mL; no unit string.

Below: 4 compounds and their reported Minimum inhibitory concentration of 48 h Candida biofilms.
# Compound, Meas value
data = [
    ("CN(C)c1ccc(/C=C/c2cc(C(C)(C)C)[o+]c(C(C)(C)C)c2)cc1.[O-][Cl+3]([O-])([O-])[O-]", 25),
    ("Nc1nc(=O)[nH]cc1F", 250),
    ("CC[C@H](C)C[C@H](C)CCCCCCCCC(=O)N[C@H]1C[C@@H](O)[C@@H](NCCN)NC(=O)[C@@H]2[C@@H](O)CCN2C(=O)[C@H]([C@H](O)CCN)NC(=O)[C@H]([C@H](O)[C@@H](O)c2ccc(O)cc2)NC(=O)[C@@H]2C[C@@H](O)CN2C(=O)[C@H]([C@@H](C)O)NC1=O", 100),
    ("CC(=O)N1CCN(c2ccc(OCC3COC(Cn4ccnc4)(c4ccc(Cl)cc4Cl)O3)cc2)CC1 (centres unmarked)", 64),
]

The record that follows has no Minimum inhibitory concentration of 48 h Candida biofilms shown yet.
query: Recorded Minimum inhibitory concentration of 48 h Candida biofilms for C[C@@H]1[C@H](O)[C@@H](C)/C=C/C=C/C=C/C=C/C=C/C=C/C=C/[C@H](O[C@@H]2O[C@H](C)[C@@H](O)[C@H](N)[C@@H]2O)C[C@@H]2O[C@](O)(C[C@@H](O)C[C@@H](O)[C@H](O)CC[C@@H](O)C[C@@H](O)CC(=O)O[C@H]1C)C[C@H](O)[C@H]2C(=O)O [Amphotericin B, reference compound] , please?
result: 32

Reference source for all entries: patent US9642829B2
